assay: chemical genetic growth profiling, strain panel (AID 1159580);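 further: tested at 20 µM; growth read once vehicle control cultures reached saturation at 30 °C; 1 = growth at the plate median or of vehicle wells; lower values mean less growth of the strain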; conditions: S. cerevisiae deletion strains, growth OD, locus YJL164C, strain tpk1, stronger effect = lower value
Out of some 5,500 compounds screened, about 2,000 (36%) were called active. Not shown: some 18% with an inconclusive outcome. Some of the results follow.
Quantity: normalized growth
When you answer, write just the number.

The cases that follow already have their normalized growth on record.
Compound	normalized growth
COc1ccc([C@@H](C)C(=O)c2ccc(O)cc2O)cc1	0.965
CN1CCN(C2=Nc3cc(Cl)ccc3Nc3ccccc32)CC1	0.999
Cn1cnc2c1c(=O)[nH]c(=O)n2C	0.978
O=C1c2cccc(O)c2C(=O)c2c(O)cccc21	0.833
CC1=C(C(=O)O)N2C(=O)[C@@H](NC(=O)[C@@H](N)c3ccc(O)cc3)[C@H]2SC1	1.03

Notebook: `CNC(C)(C)Cc1ccccc1` , normalized growth read as 1.02

Notebook: CC(=O)NC1C(O)OC(COS(=O)(=O)O)C(OC2OC(C(=O)O)C(OC3OC(CO)C(OC4OC(C(=O)O)C(O)C(O)C4OS(=O)(=O)O)C(OS(=O)(=O)O)C3NS(=O)(=O)O)C(O)C2OS(=O)(=O)O)C1O (stereo not drawn) , normalized growth read as 0.979

Notebook: `OC[C@H]1O[C@@H](Oc2ccc(O)cc2)[C@H](O)[C@@H](O)[C@@H]1O` , normalized growth read as 1.01

Notebook: NC(Cc1ccc(Cl)cc1)C(=O)O (stereo not drawn) , normalized growth read as 0.992

Notebook: `O=C(/C=C/c1ccc(O)cc1)c1ccccc1O` , normalized growth read as 0.275

Notebook: CC(=O)OC1CCC23CC1(C)CCC2C(C)(C)CC3OC(C)=O (stereo not drawn) , normalized growth read as 1.02

Notebook: `COc1cc(Cc2cnc(N)nc2N)cc(OC)c1OC` , normalized growth read as 1.01

Notebook: `CNC(=O)Oc1ccccc1OC(C)C` , normalized growth read as 0.996

Notebook: `CC[C@H]1OC(=O)[C@H](C)[C@@H](O[C@H]2C[C@@](C)(OC)[C@@H](O)[C@H](C)O2)[C@H](C)[C@@H](O[C@@H]2O[C@H](C)C[C@H](N(C)C)[C@H]2O)[C@](C)(O)C[C@@H](C)/C(=N/OCOCCOC)[C@H](C)[C@@H](O)[C@]1(C)O` , normalized growth read as 1.01

Notebook: CC(=O)OC1CCC2(O)CC1(C)CCC1C2CC1(C)C (stereo not drawn) , normalized growth read as 1

Notebook: `CCCCN(CC)c1c([N+](=O)[O-])cc(C(F)(F)F)cc1[N+](=O)[O-]` , normalized growth read as 1.01

Notebook: `CCCN(CCC)c1c([N+](=O)[O-])cc(C(F)(F)F)cc1[N+](=O)[O-]` , normalized growth read as 0.991

Notebook: `O=C1c2ccccc2C(=O)c2ccccc21` , normalized growth read as 0.975

Notebook: `O=C(Nc1ccc([N+](=O)[O-])cc1Cl)c1cc(Cl)ccc1O` , normalized growth read as 0.952

Notebook: `NNCc1ccccc1` , normalized growth read as 0.98

Notebook: `CC(=O)Nc1c(I)cc(I)c(C(=O)O)c1I` , normalized growth read as 0.995

Notebook: `CC(=O)c1ccc[nH]1` , normalized growth read as 1.01

====

experiment: chemical genetic growth profiling, strain panel (AID 1159580); details: S. cerevisiae deletion strains, growth OD, locus YHR087W, strain rtc3, stronger effect = lower value
Among all 5,500 compounds or so, about 2,000 (36%) were called active. Not shown: some 18% with an inconclusive outcome. This is one part of the list.
Quantity: normalized growth

                                   compound           quantity    recorded_value
0  C=CC1CN2CCC1CC2C(OC(C)=O)c1ccnc2ccc(OC)cc12 (centres undefined)  normalized growth   0.95 (inactive)
1  CCOC(=O)c1ccc(N2CC3CCCCN3C2c2ccc(Cl)c(Cl)c2)cc1 (centres undefined)  normalized growth  0.992 (inactive)
2  O=C(O)c1ccccc1Sc1c(C(=O)O)cc([N+](=O)[O-])cc1[N+](=O)[O-]  normalized growth  0.993 (inactive)
3  FC(F)(F)c1cc(-c2ccc(Cl)cc2)nc2cc(C3CC3)nn12  normalized growth   1.02 (inactive)
4  Cc1cc(NS(=O)(=O)c2ccc(NC(=O)c3ccccc3)cc2)no1  normalized growth   1.01 (inactive)
5   COc1cc(C2Nc3cccc4cccc(c34)N2)cc(OC)c1OC  normalized growth   1.01 (inactive)
6  O=C(O)C1c2ccccc2C(=O)N(Cc2ccc3c(c2)OCO3)C1c1cccnc1 (centres undefined)  normalized growth   1.01 (inactive)
7             O=C1NCCN=C(c2ccccc2)c2ccccc21  normalized growth  0.999 (inactive)

# input for lookup
Notebook: `COc1ccc(CCNC(=O)c2ccccc2Cl)cc1OC` , normalized growth read as 0.97 (inactive)

====

experiment: chemical genetic growth profiling, strain panel (AID 1159580);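 further: tested at 20 µM; growth read once vehicle control cultures reached saturation at 30 °C; 1 = growth at the plate median or of vehicle wells; lower values mean less growth of the strain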; conditions: S. cerevisiae deletion strains, growth OD, locus YDL101C, strain DUN1, stronger effect = lower value
The campaign covered roughly 5,500 compounds. About 2,000 (36%) were called active. Roughly 18% stayed inconclusive and do not appear here. This is one part of the list.
Listed compounds paired with reported normalized growth
When you answer, write just the number.

Compound	normalized growth
COC(=O)C[C@H]1C(C)(C)[C@@H](OC(C)=O)[C@@H]2CC3=C4CC(=O)O[C@@H](c5ccoc5)[C@]4(C)CCC3[C@@]1(C)C2=O (stereo partly specified)	1.02
COc1ccc(CC(=O)c2ccc(O)cc2O)cc1	0.969
O=C(CCc1ccc(O)cc1)c1c(O)cc(O)cc1O	1.01
Nc1cccc2c1C(=O)c1ccccc1-2	0.368
CC(C)N1C(=O)c2ccccc2NS1(=O)=O	1.01

# input for lookup
Notebook: `COc1ccc([C@@H](C)C(=O)c2ccc(O)cc2O)cc1` , normalized growth read as 0.955

====

assay: chemical genetic growth profiling, strain panel (AID 1159580);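 further: tested at 20 µM; growth read once vehicle control cultures reached saturation at 30 °C; 1 = growth at the plate median or of vehicle wells; lower values mean less growth of the strain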; conditions: S. cerevisiae deletion strains, growth OD, locus YJL187C, strain SWE1 (second series), stronger effect = lower value
The campaign covered roughly 5,500 compounds. About 2,000 (36%) were called active. Inconclusive results (about 18%) are left out. The list shows a part of the results.
Quantity: normalized growth

The cases that follow already have their normalized growth on record.
>>> df
                                   compound   recorded_value
0  CC(=O)OC1CCC23CC1(C)CCC2C(C)(C)CC3OC(C)=O (stereo unspecified)  1.07 (inactive)
1  CC(=O)OC1CCC2(O)CC1(C)CCC1C2CC1(C)C (stereo unspecified)  1.01 (inactive)
2                Cn1cnc2c1c(=O)[nH]c(=O)n2C  1.03 (inactive)
3  CCCCN(CC)c1c([N+](=O)[O-])cc(C(F)(F)F)cc1[N+](=O)[O-]  1.01 (inactive)
4              Cn1c(=O)c2c(ncn2CCO)n(C)c1=O  1.03 (inactive)

# input for lookup
Notebook: C[C@]12[C@H](O)CC3C(CC[C@@H]4C[C@@H](O)CC[C@]34C)[C@@]1(O)CC[C@@H]2C1=CC(=O)OC1 (stereo partly specified) , normalized growth read as 1.01 (inactive)

====

assay: chemical genetic growth profiling, strain panel (AID 1159580);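 further: tested at 20 µM; growth read once vehicle control cultures reached saturation at 30 °C; 1 = growth at the plate median or of vehicle wells; lower values mean less growth of the strain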; conditions: S. cerevisiae deletion strains, growth OD, locus YJR066W, strain TOR1, stronger effect = lower value
Screen size: about 5,500 compounds; about 2,000 (36%) were called active. About 18% were inconclusive and are not listed. The list shows a part of the results.
Quantity: normalized growth
When you answer, write just the number.

The cases that follow already have their normalized growth on record.
>>> df
                                   compound           quantity  recorded_value
0  CN1CCCCC1c1ccc(-c2cccnc2)nc1 (stereo unspecified)  normalized growth           0.951
1  Cc1cc2nc3c(=O)[nH]c(=O)nc-3n(C[C@@H](O)[C@@H](O)[C@@H](O)COP(=O)(O)O)c2cc1C  normalized growth           0.966
2  COc1ccc(Oc2ccc([N+](=O)[O-])cc2C(=O)O/N=C(/N)c2ccc(C(F)(F)F)cc2)cc1  normalized growth            1.07
3                  CN1C(=O)CC[C@H]1c1cccnc1  normalized growth           0.992
4  CCCCN(CC)c1c([N+](=O)[O-])cc(C(F)(F)F)cc1[N+](=O)[O-]  normalized growth           0.992

Notebook: CC1SC(c2cccnc2)N(c2ccc(F)cc2F)C1=O (stereo unspecified) , normalized growth read as 0.82

Notebook: CC1SC(c2cccnc2)N(c2ccc(Cl)cc2)C1=O (stereo unspecified) , normalized growth read as 0.284

Notebook: Cc1cc2nc3c(=O)[nH]c(=O)nc-3n(CC(O)C(O)C(O)CO)c2cc1C (stereo unspecified) , normalized growth read as 0.926

Notebook: `Cc1c(NC(C)C)c(=O)n(-c2ccccc2)n1C` , normalized growth read as 0.962

Notebook: `CN1CCC[C@H]1c1cccnc1` , normalized growth read as 0.943

Notebook: `COc1ccc(NS(=O)(=O)c2ccc(N)cc2)nn1` , normalized growth read as 0.934
